Test system: HuM2e antibody 23K12
Assay type: binding, human
assay endpoint: Signal (peptides that bind to 23K21 and 8I10)

- substance: "286 (CSLLTEVGMSLLTCV; epitope peptide) [compound 286]"
  observed result: 2311
- substance: "296 (MSLLTEVGMCLLTEV; epitope peptide) [compound 296]"
  observed result: 2023
- substance: "320 (SLLTEVGSLLTEV; epitope peptide) [compound 320]"
  observed result: 1794
- substance: "678 (SLLTEVETPIRSEWGCRCNDSSD; epitope peptide) [compound 678]"
  observed result: 730
- substance: "416 (SLLTEVETPIRNEWGCRCNDTSD; epitope peptide) [compound 416]"
  observed result: 794
